Values were extracted from patent US7118895B2.

tested on: Crude diglycosidase; assay: Examination of substrate concentration in the conversion into isoflavone aglycons by diglycosidase using soybean materials; format: biochemical, Penicillium multicolor IAM7153; conditions: soymilk, substrate concentration 5%, heat treatment of enzyme yes, reaction time 6 h;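 note: percent of the isoflavone family total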
property-name: Decomposition efficiency: ratio of each glycoside/aglycon within its isoflavone family

> print(dat)
                                     smiles  experimental.value
1  O=c1c(-c2ccc(O)cc2)coc2cc(O[C@@H]3O[C@H](CO)[C@@H](O)[C@H](O)[C@H]3O)cc(O)c12               37.9%
2  CC(=O)OC[C@H]1O[C@@H](Oc2cc(O)c3c(=O)c(-c4ccc(O)cc4)coc3c2)[C@H](O)[C@@H](O)[C@@H]1O        not detected
3  COc1cc2c(=O)c(-c3ccc(O)cc3)coc2cc1O[C@@H]1O[C@H](COC(C)=O)[C@@H](O)[C@H](O)[C@H]1O        not detected
4  O=C(O)CC(=O)OC[C@H]1O[C@@H](Oc2ccc3c(=O)c(-c4ccc(O)cc4)coc3c2)[C@H](O)[C@@H](O)[C@@H]1O               47.6%
